Measured values drawn from the RNAGym collection of RNA variant scans (doi:10.1073/pnas.2313332121) for this set.

Quick list: polymerase ribozyme fitness (log ratio) per entry.
B1: TPR t1 (parent)
chain: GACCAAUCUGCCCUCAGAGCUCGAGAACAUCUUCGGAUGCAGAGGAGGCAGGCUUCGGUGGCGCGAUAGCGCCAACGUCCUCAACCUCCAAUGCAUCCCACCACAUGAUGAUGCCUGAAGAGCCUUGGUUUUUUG

variants of: B1; assay: polymerase ribozyme fitness, log enrichment relative to wild type (log ratio); higher = more active; in vitro selection for triplet polymerase activity

sequence_entry	polymerase ribozyme fitness (log ratio)
GACCAAUCUGCCCUCAGAGCUCGAGAACAUCUUCGGAUGCAGAGGUGGCAGGCUUCGGUGGCGCGAUAGCUCCAACGUCCUCAACCUCCAAUGCAUCCCACCACAUGAUAAUGCCUGAAGAGCCUUGGUUUUUUG	-2.84
GACCAAUCUGCCCUCAGAGCUGGAGAACAUCUUCGCAUGCAGAGGAGGCAGGCUUCGGUGGCGCGAUAGCGCCAACGUCCUCAACCUCCAAUGCAUCCCACCACAUGAUGAUGCCUGAAGAGCCUUGGUUUUUUG	-3.09
GACCAAUCUGCCCUUAGAGCUCGAGAACAUCUUCGGAUGCAGAUGAGGCAGGCUUCGGUGGCGCGAUAGCGCCAACGUCCUCAAACUCCAAUGUAUCCCACCACAUGAUGAUGCCUCUAGAGCCUUGGUUUUUUG	-4.78
GACCAAUCUGCCCUCAGAGCUCGAGAACAUCUUCGGAUGCAGAGGAGGCAGGCUUCGGUGGCCCGAUAGCGCCAACGUCCUCAACCUCCAAUGCAUCCCACCACAUGAUGAUGCCUGAAGAGCCUGGGUUUUUUG	-1.74
GACCAAUCUGCCAUCAGAGCUCGAGAACAUCUUCGGAUGCAGAAGAGGCAGGCUUCGGUGGCGCGAUAGCGCCAACGUCCUCAACCUCCAAUGCAUCCCACCACAUGAUGAUGCCUGAAGAGCCUUCGUUCUUUG	-2.25

Note to self: polymerase ribozyme fitness (log ratio) recorded for GACCAGUCUGCCCUCAGAGCUCGAGAACAUCUUCGGAUGCUGAGGAGGCAGGCUUCGGUGGCGCGAUAGUGCCAACGUCCUCAACCUCCAAUGCAUCCCACCACAUGAUGAUGCCUGAAGAGCAUUGGUUUUUUG was -0.611

Note to self: polymerase ribozyme fitness (log ratio) recorded for GACCAAUCUGCCCUCAGAACUCGAGAACAUCUUCGGAUGCAGAGGAGGCAGGCUUGGGUGGCGCGAUAGCGCCAACGUCCUCAACCUCCAAUGCAUCCCACCACAAGAUGAUCCCUGAAGAGCCUUGGUUUUUUG was -1.09

Note to self: polymerase ribozyme fitness (log ratio) recorded for GACCAAUCUGCCCUCAGAGCUCGAGAACAUCUUCGGAUGCAGAGGAGGUAGGUUUCGGUGGCGCGAUAGCGCCAACGUCCUCAACCUCUAAUGCAUCCCACCACAUGAUGAUGCCUGAAGAGCCUUGGUUUUUUG was -0.369

Note to self: polymerase ribozyme fitness (log ratio) recorded for GACCAAUCUGCCCUCAGAGCUCGAGAACAUCUUCGGAUGCAGAGGAGGGAGGCUUCGGUGGCGCGAUAGCGCCAACGUCCUCAACCUCCAAUGCAUCCCAACACAUGAUGAUGCCUGAAGAGCCUUGGUUUUUUG was -1.3

Note to self: polymerase ribozyme fitness (log ratio) recorded for GACCAAUCUGCCCUCUGAGCUCGAGAACAUCUUCGGAUGCAGAGGAGGCAGGCUUGGGUGGCGCGAUAGCGCCAACGUCCUCAACCUCCAAUGCAUCCCACCACAUGAUGAUGCCUGAAGAGCCAUGGUUUUUUG was -3.24

Note to self: polymerase ribozyme fitness (log ratio) recorded for GACCAAUCUGCCCUCAGAGCUCGAGUACAUCUUCGGAUGCAGAGGAGGCAGGCUUCGGUGCCGCGAUAGCGCCAACGUCCUCAACCUCCAAUGCAUCCCACCACAUGAUGAUGCCUGAAGAGCCUUGGUUUUUUG was -3.63

Note to self: polymerase ribozyme fitness (log ratio) recorded for GACCAAUCUGCCUUCAGAGCUCGAGAACAUCUUCGGAUGCAGAGGAGGCAGGCUUCGGUGGCGCGAUAGCUCCAACGUCCUCAACCUCCAAUGCAUCCCACCACAUGAUGGUGCCUGAAGAGCCUGGGUUUUUUG was -0.972

Note to self: polymerase ribozyme fitness (log ratio) recorded for GACCAAUCUGCCUUCAGAGCUCGAGAACAUCUUCGGAUGCAGAGGAGACAGGCUUCGGUGGCGCGAUAGCGCCAACGUCCUCAACCUCCAAUGCAUCUCACCACAUGAUGAUGCCUGAAGAACCUUGCUUUUUUU was -1.66

Note to self: polymerase ribozyme fitness (log ratio) recorded for GACCAAUCUGCCCUCAGAGCUCGAGAACAUCUUCGGAUGCAGAGGAGGCAGGCUUCGGUGGCGCGAUAGCGCCAACGUCCUCAACCUCCAAUGCAUCCUACCACAUGAUGAUGCCUGAAGGGCCUUGGUUUUUUG was -0.804

Note to self: polymerase ribozyme fitness (log ratio) recorded for GACCAAUCUGCCCUCAGAGCUCGAGAACAUCUUCGGAUGCAGAGGAGUCAGGCUUCGGUGGCGCGAUAGCGCCAACGUCCUGAACCUCCAAGGCAUCCCACCACAUGAUGAUGCCUGAAGAGCCUUGGUUUUUUG was -4.41

Note to self: polymerase ribozyme fitness (log ratio) recorded for GACCAAUCUGCCCUCAGAGCUCGAGAACAUCUUCGGAUGCAGCGGAGUCAGGCAUCGGUGGCGCGAUAGCGCCAACUUCCUCAACCUCCAAUGCAUCCCACCACAUGAUGAUGCCUGAAAAGCCUUGGUUUUUUA was -2.07

Note to self: polymerase ribozyme fitness (log ratio) recorded for GACCAAUCUGCCCUCAGACCUCGAGAACAUCUUCGGAUGCAGAGGAGGCAGGCUUCAGUGGCGCGAUAUCGCCAACGUCCUCAAGCUCCAAUGCAUCCCACCACAUGAUGAUGCCUGAAGAGCCUUGGUUUUUUG was -4.01

Note to self: polymerase ribozyme fitness (log ratio) recorded for GACCAAUCUGCCCUCAGAGCUCGAGAACAUCUUCGGAUGCAGAGGAGGCAGGCUUCGGUGGCGCGAUAGCGCAAACGUCCUCAACCCCCAAUGCAUCCCACCACAUGAUGAUGCCUGAAGAGCCUUGGUUUUUUG was 0.572

Note to self: polymerase ribozyme fitness (log ratio) recorded for GACCAAUCUGCCCUCAGAGGUCGAGAACAUCAUCGGAUGCAGAGGAGGCAGGGCUCUGUGGCGCGAUAGCGCCAACGUCCUCAACCUCCAAUGCAUGCCACCACAUGAUGAUACCUGAAGAGCCUUGGUUUUUUG was -6.61
